Every entry's value here was drawn from PubChem BioAssay.

assay: plasmodial surface anion channel blockers, osmotic lysis – cell-based, P. falciparum Indochina, OD700, 1 h, primary screen (AID 1154); conditions: P. falciparum Indochina infected RBC osmotic lysis, higher = more signal, called active from +8 up or from −8 down
Activity calls are given as the source filed them.
z-score overview
valueKind: z-score

smilestext=CN(C)C(=O)[C@]1(CCC(=O)OC(C)(C)C)N=C(c2ccc(OCCCO)cc2)O[C@@H]1c1ccccc1CN=[N+]=[N-] assayresult="29.8 (active)"
smilestext=COC(=O)[C@@H]1N=C(c2ccc(OCCCO)cc2)O[C@@H]1C assayresult="19 (active)"
smilestext=O=C1O[C@@H](c2ccccc2)[C@@H](c2ccccc2)N2[C@@H](c3ccc(OCCO)cc3)[C@]3(C(=O)Nc4ccc(C#CC5=CCCCC5)cc43)[C@@H](C(=O)NC[C@H](O)c3ccccc3)[C@H]12 assayresult="1.96 (inactive)"
smilestext=CN(C)CCCCCCNC(=O)[C@@H]1C[C@@H]2C(=O)N3CCC[C@H]3C(=O)N2[C@@H]1c1cccc(OCCO)c1 assayresult="3.6 (inactive)"
smilestext=COc1ccc(CCNC(=O)[C@@]2(c3ccc([N+](=O)[O-])cc3)CC(=O)N(C3CCCCC3)[C@@H]2c2ccc(CO)cc2)cc1 assayresult="0.965 (inactive)"
smilestext=CCOC(=O)C[C@H]1[C@H](OC(=O)c2cc3ccccc3oc2=O)[C@@H](NC(=O)c2ccc3ccccc3n2)c2cc(OCCCO)ccc2N1C(=O)Cc1ccc(OC)cc1 assayresult="8.66 (active)"
smilestext=NC(=O)[C@@]1(Cc2ccccc2)COC(c2ccc(OCCCO)cc2)=N1 assayresult="17.5 (active)"

* * *

assay: inhibition of PAO1 biofilm formation – strain PAO1, LB-PBS medium, absorbance 600 nm, primary screen (AID 1176); further: test concentration not given here; settings: P. aeruginosa PAO1 growth/biofilm, A600, 12 h; higher = more signal
// 0 (no) strictly below 0.6 in z-score; 1 (yes) otherwise

molecule=COc1ccc([Si](C)(C)[C@H]2[C@H](CC(=O)N3CCC[C@H]3CO)O[C@@]3(C(=O)N(Cc4ccc(N5CCOC5=O)cc4)c4ccccc43)[C@@H]2C)cc1 discretelabel="0 (no)"
molecule=COc1cccc(C)c1NC(=O)O[C@H]1[C@H](OC(=O)Nc2ccccc2-c2ccccc2)[C@H](OC(=O)Nc2ccccc2-c2ccccc2)[C@@H](OC)O[C@@H]1CO discretelabel="1 (yes)"
molecule=COc1ccc([Si](C)(C)[C@H]2[C@H](CC(=O)N3Cc4ccccc4C[C@H]3CO)O[C@@]3(C(=O)N(Cc4ccc(N5CCOC5=O)cc4)c4ccccc43)[C@@H]2C)cc1 discretelabel="1 (yes)"
molecule="CC(CO)N1C(=O)[C@]2(C)C3C(=O)OCCC/C=C\\[C@H]3OC23C=CCN(c2ccc(Cl)cc2)C(=O)[C@@H]13 (stereo partly specified)" discretelabel="0 (no)"
molecule=CC(C)C[C@@H]1NC(=O)[C@@H]2C[C@H](C(=O)NCCCCCCN)[C@H](c3cccc(OCCO)c3)N2C1=O discretelabel="0 (no)"

* * *

assay: COS7 lysate on small-molecule microarray, probe aHis, 635 nm (AID 1123); settings: COS7 cell lysate, fluorescence, higher = more signal;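 further: z-score combines 667nm fluorescence intensity with signal-to-noise per printed compound spot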
// f strictly below 2 in composite z-score; t otherwise

compound=CCCN1C(=O)[C@@]2(Cc3ccccc31)N=C(c1ccc(OCCCO)cc1)O[C@H]2c1ccccc1 discretelabel=f
compound=C=CC[C@H](OC(=O)Nc1ccc(SC)cc1)c1ccc(O)c2ccccc12 discretelabel=f
compound="CCCCCCCCCCC(O)C1C=CC2C(=O)N(c3ccccc3)C(=O)C2N1Nc1ccc(C#N)cc1 (stereo not given)" discretelabel=f
compound="CC1CC/C=C\\[C@H]2OC34C=CCN(C(C)(C)C)C(=O)[C@H]3N(CCCCCO)C(=O)[C@@H]4C2C(=O)O1 (stereo not given in full)" discretelabel=f
compound="CC(=O)N1CC2(CC2)CC1c1ccccc1 (stereo not given)" discretelabel=f
compound="CC(C)c1ccc(NN2C(C(O)c3ccc(F)cc3)C=CC3C(=O)N(c4ccccc4)C(=O)C32)cc1 (stereo not given)" discretelabel=t
compound="CN1C(=O)C2C=CC(C(O)c3cccn3C)N(Nc3ccc([N+](=O)[O-])cc3[N+](=O)[O-])C2C1=O (stereo not given)" discretelabel=f
compound=CCCN1C(=O)[C@]2(Cc3ccccc31)N=C(c1ccc(OCCCO)cc1)O[C@@H]2c1ccccc1 discretelabel=t
compound=CCOC(=O)C[C@H]1[C@H](OC(=O)c2ccc(C(=O)c3ccccc3)cc2)[C@@H](NC(=O)C2CCCCC2)c2cc(OCCCO)ccc2N1C(=O)c1ccc2ccccc2n1 discretelabel=f
compound=Cc1ccc(S[C@]2(C(=O)NCC(F)(F)F)CC(=O)N(Cc3cc(C(F)(F)F)cc(C(F)(F)F)c3)[C@@H]2c2ccc(CO)cc2I)cc1 discretelabel=f
compound=O=C(O)[C@@H]1[C@@H]2C(=O)N(c3ccccc3)C(=O)[C@@H]2C[C@@H]1Sc1ccccc1 discretelabel=f
compound=CCOC(=O)C[C@H]1[C@H](OC(=O)c2cc3ccccc3oc2=O)[C@@H](NC(=O)CC(C)C)c2cc(OCCCO)ccc2N1C(=O)c1ccc2ccccc2n1 discretelabel=f
compound=COCCOC(=O)N1C(=O)[C@@]2(c3cc(C#CC4(O)CCCCCC4)ccc31)[C@H](C(=O)N1CCc3cc(OC)c(OC)cc3C1)[C@H]1C(=O)O[C@H](c3ccccc3)[C@H](c3ccccc3)N1[C@@H]2c1ccc(OCCO)cc1 discretelabel=f
compound=COc1ccc([Si](C)(C)[C@H]2[C@H](CC(=O)N(CCO)Cc3ccccc3)O[C@@]3(C(=O)N(C)c4c(Br)cc(C)cc43)[C@@H]2C)cc1 discretelabel=f
compound=[N-]=[N+]=NCc1ccccc1C[C@@]1(C(N)=O)N=C(c2ccc(OCCCO)cc2)O[C@@H]1c1ccccc1 discretelabel=t
compound=NC(=O)NCC#Cc1ccc2c(c1)[C@]1(C(=O)N2)[C@H](c2ccccc2OCCO)N2[C@H](c3ccccc3)[C@H](c3ccccc3)OC(=O)[C@H]2[C@@H]1C(=O)O discretelabel=f
compound=CC(C)C[C@@H]1NC(=O)[C@@H]2C[C@H](C(=O)NCCCCCCN)[C@H](c3cccc(OCCO)c3)N2C1=O discretelabel=t
compound=[N-]=[N+]=Nc1ccccc1C[C@]1(C(=O)O)COC(c2ccc(OCCCO)cc2)=N1 discretelabel=f
compound=Cc1ccc(N2C(=O)c3ccccc3[C@@H](C(=O)NCCCN(C)C)[C@@H]2c2ccc(CO)cc2)nc1 discretelabel=f
compound=Oc1ccc2cc[n+](Cc3cc4c(cc3Br)OCO4)cc2c1 discretelabel=f
compound=CN(C)C(=O)[C@]1(Cc2ccccc2CN=[N+]=[N-])N=C(c2ccc(OCCCO)cc2)O[C@@H]1c1ccccc1 discretelabel=t
compound=CCOC(=O)C[C@H]1[C@H](OC(=O)Cc2ccc3c(c2)OCO3)[C@@H](NC(=O)c2ccc3ccccc3n2)c2cc(OCCCO)ccc2N1C(=O)c1ccc2ccccc2n1 discretelabel=f
compound=[N-]=[N+]=Nc1ccccc1C[C@]1(C(=O)N2CCOCC2)COC(c2ccc(OCCCO)cc2)=N1 discretelabel=t
compound=CCC#CCN(Cc1ccccc1Br)[C@H](/C=C/C1CC1)[C@@H](O)Cc1ccccc1 discretelabel=f
compound="O=C1CS(=O)(=O)C(c2cccc([N+](=O)[O-])c2)N1c1ccccc1 (stereo not given)" discretelabel=f
compound=CCCC[C@@H](O)C1=C(COc2ccccc2)C[C@H]2C(=O)N(Cc3ccccc3)C(=O)[C@H]2[C@H]1CO discretelabel=f
compound=C=CCNC(=O)[C@@H]1[C@H]2C(=O)O[C@H](c3ccccc3)[C@H](c3ccccc3)N2[C@H](c2ccc(OCCO)cc2)[C@@]12C(=O)N(C(=O)OCCOC)c1ccc(C#Cc3ccc(OC)cc3)cc12 discretelabel=f
compound=COc1ccc(CCNC(=O)[C@@]2(Cc3ccccc3I)c3ccccc3C(=O)N(C3CCCCC3)[C@H]2c2ccc(CO)cc2)cc1 discretelabel=f
compound=C=CCN1C(=O)[C@]2(CCS(=O)(=O)c3ccccc3)N=C(c3ccc(OCCCO)cc3)O[C@@H]2c2ccccc21 discretelabel=t

* * *

assay: optical density shifts of acrAB sulA E. coli – strain DRC41, OD650, 48 h, E. coli filamentation inducer project, primary screen (AID 1152); conditions: higher = more signal, called active from +8 up or from −8 down;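 further: E. coli MC1000 strain DRC41 lacking acrAB efflux pump and sulA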
Activity calls are given as the source filed them.
z-score overview
valueKind: z-score

compound="Cc1ccc(NN2C(C(O)c3c(F)cccc3Cl)C=CC3C(=O)N(C4CCCCC4)C(=O)C32)cc1 (centres undefined)" valuekind=z-score assayresult="0.0905 (inactive)"
compound="CCCCCN1CC=CC23O[C@@H]4C=CCCOC(=O)C4[C@H]2C(=O)N(CCCCCCO)[C@@H]3C1=O (some centres undefined)" valuekind=z-score assayresult="0.457 (inactive)"
compound="CC1CC/C=C\\[C@H]2OC34C=CCN(Cc5ccccc5)C(=O)[C@H]3N(C(CO)C(C)C)C(=O)[C@@H]4C2C(=O)O1 (some centres undefined)" valuekind=z-score assayresult="0.084 (inactive)"
compound=C=C(C(=O)CC[C@H](OC(=O)c1ccccc1-c1ccccc1C(=O)O)c1cccc(OCCO)c1)C(C)C valuekind=z-score assayresult="-0.567 (inactive)"
